Recorded below: Ki, system Androgen receptor (Rattus norvegicus, UniProt P15207).
PROPERTY NAME: Ki (nM)

| COMPOUND | ENDPOINT RESULT |
| --- | --- |
| CC(O)(COc1ccc([N-]C#[S+])cc1)C(=O)Nc1ccc([N+](=O)[O-])c(C(F)(F)F)c1 (centres undefined) | 4.62 |
| C[C@](O)(COc1ccc(Br)cc1)C(=O)Nc1ccc([N+](=O)[O-])c(C(F)(F)F)c1 | 11.6 |
| CC(=O)Nc1ccc(SC[C@](C)(O)C(=O)Nc2ccc([N+](=O)[O-])c(C(F)(F)F)c2)cc1 | 4.9 |
| C[C@](O)(COc1ccc(I)cc1)C(=O)Nc1ccc([N+](=O)[O-])c(C(F)(F)F)c1 | 30 |
